Can you tell me solubility for the items I'm about to list?
- ASSAY_OVERVIEW: Aqueous solubility in PBS buffer at pH 7.4 at 100 uM after 1 hr by LC-MS/MS analysis
- Type: physicochemical
- RECORDED_CONDITIONS: pH 7.4, 1 h
# output: bare number, implied unit µM

QUERY: Recorded solubility of COc1cc(-c2cnc3c(N4CCNC(=O)C4)snc3c2)ccc1N , please.
RESULT: 51.3

QUERY: Recorded solubility of COc1cc(-c2cnc3c(N4CCOCC4)snc3c2)ccc1N , please.
RESULT: 3.44

QUERY: Recorded solubility of COc1cc(-c2cnc3c(N4C[C@@H](C)O[C@@H](C)C4)snc3c2)ccc1N , please.
RESULT: 0.52

QUERY: Recorded solubility of CC(C)NCC(O)COc1cccc2ccccc12 (centres undefined) , please.
RESULT: 117

====

- Tested on: Huh-7
- ASSAY_OVERVIEW: Cytotoxicity against human HuH7 cells after 48 hrs by Alamar Blue assay
- Assay type: cell-based
- RECORDED_CONDITIONS: huh-7, 48 h
QUANTITY: CC50

QUERY: Recorded CC50 of COc1cc(-c2cnc3c(N4CCO[C@H](C)C4)snc3c2)ccc1N , please.
RESULT: 20.7 µM

QUERY: Recorded CC50 of COc1cc(-c2cnc3c(N4CCS(=O)(=O)CC4)snc3c2)ccc1N , please.
RESULT: > 10 µM

QUERY: Recorded CC50 of COc1cc(-c2cnc3c(N4CC5CCC(C4)O5)snc3c2)ccc1N , please.
RESULT: > 10 µM

QUERY: Recorded CC50 of COc1cc(-c2cnc3c(N4CCC(C#N)CC4)snc3c2)ccc1N , please.
RESULT: 2.09 µM

QUERY: Recorded CC50 of COc1cc(-c2cnc3c(N4CCC(C(N)=O)CC4)snc3c2)ccc1N , please.
RESULT: > 10 µM

QUERY: Recorded CC50 of COc1cc(-c2cnc3c(N4CCOC(C)C4)snc3c2)ccc1N (racemic) , please.
RESULT: 21.5 µM

QUERY: Recorded CC50 of COc1cc(-c2cnc3c(N4C[C@@H](C)O[C@H](C)C4)snc3c2)ccc1N (relative stereo) , please.
RESULT: > 10 µM

QUERY: Recorded CC50 of COc1cc(-c2cnc3c(N4C[C@@H](C)O[C@@H](C)C4)snc3c2)ccc1N , please.
RESULT: > 25 µM

QUERY: Recorded CC50 of COc1cc(-c2cnc3c(N4CCCC(C(N)=O)C4)snc3c2)ccc1N (configuration not stated) , please.
RESULT: > 10 µM

QUERY: Recorded CC50 of COc1cc(-c2cnc3c(N4CCC(N)CC4)snc3c2)ccc1N , please.
RESULT: > 10 µM

QUERY: Recorded CC50 of COc1cc(-c2cnc3c(N4CCCCC4)snc3c2)ccc1N , please.
RESULT: > 10 µM

QUERY: Recorded CC50 of COc1cc(-c2cnc3c(N4CCOC[C@@H]4C)snc3c2)ccc1N , please.
RESULT: 6.32 µM
